Provenance of the data: patent US20080299188A1

assay: microcentrifuge dissolution test in MFD solution; assay type: physicochemical; settings: during the initial ninety minutes, hydrochloride monohydrate
Structures can show the parent of a compound that is named as a salt.
measured attribute: MDC90 (maximum dissolved concentration of ziprasidone)

• O=C1Cc2cc(CCN3CCN(c4nsc5ccccc45)CC3)c(Cl)cc2N1 [Ziprasidone hydrochloride monohydrate, ziprasidone hydrochloride monohydrate] = 22 µgA/mL

====

assay: microcentrifuge dissolution test in MFD solution; format: physicochemical; conditions: during the initial ninety minutes
measured attribute: MDC90 (maximum dissolved concentration of ziprasidone) (µgA/mL)

- O=C1Cc2cc(CCN3CCN(c4nsc5ccccc45)CC3)c(Cl)cc2N1 [Ziprasidone Free Base, ziprasidone]: 2

====

assay: microcentrifuge dissolution test in MFD solution; format: physicochemical; settings: during the initial ninety minutes, hydrochloride monohydrate
Structures can show the parent of a compound that is named as a salt.
measured attribute: AUC90 (area under the concentration-versus-time curve) (min·µgA/mL)

• O=C1Cc2cc(CCN3CCN(c4nsc5ccccc45)CC3)c(Cl)cc2N1 [Ziprasidone hydrochloride monohydrate, ziprasidone hydrochloride monohydrate] = 1700

====

assay: microcentrifuge dissolution test in MFD solution; format: physicochemical; settings: during the initial ninety minutes
measured attribute: AUC90 (area under the concentration-versus-time curve)

- O=C1Cc2cc(CCN3CCN(c4nsc5ccccc45)CC3)c(Cl)cc2N1 [Ziprasidone Free Base, ziprasidone]: 120 min·µgA/mL
